Values from paper PMC6222422

Would you kindly list EC50 for each of these molecules?
- System: VSV
- experimentalDetails: microbe, parasite or virus in culture
- Type: cell-based
- testConditions: Vesicular stomatitis virus, Vero 76, read-out: VSV EC50

molecule: Fc1ccc(NC(=S)NCCc2c[nH]c3ccccc23)cc1Cl [Compound 28]
EC50: > 32 µM

Provide EC50 for all items below, preserving their order.
1. S=C(NCCc1c[nH]c2ccccc12)Nc1ccc(Cl)cc1 [Compound 4]
2. Cc1ccc(NC(=S)NCCc2c[nH]c3ccccc23)cc1 [Compound 3]
3. S=C(NCCc1c[nH]c2ccccc12)Nc1cccc(Cl)c1 [Compound 14]

> 55 µM
> 75 µM
> 32 µM

Provide EC50 for all items below, preserving their order.
1. CCOC(=O)NC(=S)NCCc1c[nH]c2ccccc12 [Compound 20]
2. CCNC(=S)NCCc1c[nH]c2ccccc12 [Compound 22]
3. CNC(=S)NCCc1c[nH]c2ccccc12 [Compound 25]
4. S=C(NCCc1c[nH]c2ccccc12)Nc1ccccc1Cl [Compound 13]

["> 100 µM", "> 100 µM", "> 100 µM", "> 53 µM"]
